assay-notes: ATG_BRE_CIS: Attagene CIS-FACTORIAL HepG2 Assay for human Bone Morphogenetic Protein (BMP) Response Element (BRE) (AID 2282933)
test-context: HepG2 BMP response element reporter, Attagene transcription factor profiling; actives raise or lower the signal
The source made the active and inactive calls. How the source made its calls: active means hit-call score of the fitted dose curve at least 0.9, where 1 is the maximum; inactive means score below 0.9.
Tick one outcome: True (active), False (inactive)

Illustrative cases are given below, each with its answer.
COC(N)=O	False
CC(=O)c1ccc(-c2ccccc2)cc1	False
CC(C)(C)c1ccc(O)cc1	True
O=[N+]([O-])c1ccc(Cl)c(Cl)c1	False
CCN(CC)C1CCCCC1	False
CCOP(=S)(OCC)SCSCC	False
Cc1ccc2c(c1N)C(=O)c1ccccc1C2=O	False
O=C(O)C(F)(F)C(F)(F)C(=O)O	False

Now, please, on to the next molecule.
Query :: Recorded test call requested for N#Cc1cc([N+](=O)[O-])ccc1N
Result :: False

====

Read-out: Monocyte Chemoattractant Protein-1 (MCP1), CCL2 (gene 6347)
assay-notes: BSK_4H_MCP1: BioMAP Diversity Plus: 4H Assay for Monocyte Chemoattractant Protein-1 (MCP1) Biomarker Activity (AID 2283018)
test-context: primary human endothelial cells (HUVEC); actives raise or lower the signal
Activity calls are given as the source filed them. How the source made its calls: active means hit-call score of the fitted dose curve at least 0.9, where 1 is the maximum; inactive means score below 0.9.
Pick one and only one: 1.0 (active), 0.0 (inactive)

Take a look at these entries with their results.
O=P(OCC(Br)CBr)(OCC(Br)CBr)OCC(Br)CBr (configuration not stated)	1.0
O=C(O)C1C(C(=O)O)C2(Cl)C(Cl)=C(Cl)C1(Cl)C2(Cl)Cl (configuration not stated)	0.0
COP(=O)(O)OC	0.0
CCCCC(CC)COP(=O)(Oc1ccccc1)Oc1ccccc1 (configuration not stated)	1.0
c1ccc2c(c1)Nc1ccccc1S2	0.0
COC(=O)C(F)(F)C(F)(F)OC(F)(C(F)(F)F)C(F)(F)OC(F)=C(F)F (configuration not stated)	0.0
Cc1ccc(O)cc1C	0.0
CC(C)(C)c1ccc(O)cc1	0.0
N#Cc1cc([N+](=O)[O-])ccc1N	0.0
Cc1ccc2c(c1N)C(=O)c1ccccc1C2=O	0.0

Query :: Outcome logged for c1nc[nH]n1 in this assay:
Result :: 0.0

Query :: Same thing, different compound: O=C(O)C(F)(OC(F)(F)C(F)(F)C(F)(F)F)C(F)(F)F (configuration not stated)
Result :: 0.0

====

study-target: Estrogen receptor (Homo sapiens) (UniProt P03372)
Sequence (P03372 whole entry, looked up, the tested form may be a part): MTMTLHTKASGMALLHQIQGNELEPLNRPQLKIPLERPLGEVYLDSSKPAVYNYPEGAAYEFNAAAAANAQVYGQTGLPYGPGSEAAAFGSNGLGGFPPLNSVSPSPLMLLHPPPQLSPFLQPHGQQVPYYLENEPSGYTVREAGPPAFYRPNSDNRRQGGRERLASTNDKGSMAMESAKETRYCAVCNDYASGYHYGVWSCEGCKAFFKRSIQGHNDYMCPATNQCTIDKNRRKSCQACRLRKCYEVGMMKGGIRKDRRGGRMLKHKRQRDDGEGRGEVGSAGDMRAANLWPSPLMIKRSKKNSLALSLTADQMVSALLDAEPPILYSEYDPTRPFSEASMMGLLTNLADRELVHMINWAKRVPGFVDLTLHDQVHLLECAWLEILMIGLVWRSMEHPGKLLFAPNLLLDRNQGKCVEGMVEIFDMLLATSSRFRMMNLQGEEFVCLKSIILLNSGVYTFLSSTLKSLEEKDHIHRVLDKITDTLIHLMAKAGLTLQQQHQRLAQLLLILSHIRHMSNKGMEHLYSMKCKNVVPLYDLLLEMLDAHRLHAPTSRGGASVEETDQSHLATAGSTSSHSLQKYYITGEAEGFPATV
assay-notes: OT_ER_ERaERa_0480: Odyssey Thera (OT) 8-hour HEK293T Protein-Complementation Assay for Estrogen Receptor-alpha/-alpha Homodimer (AID 2283351);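 further: rise in fluorescence from reassembled reporter fragments on ERα LBD homodimer in nucleus or whole cell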
Records with an inconclusive call do not appear. Active and inactive are the calls of the source. How the source made its calls: active means hit-call score of the fitted dose curve at least 0.9, where 1 is the maximum; inconclusive means response in the unintended direction; inactive means score below 0.9.
Please reply with one of these outcomes: True for active, False for inactive

CSC(C)(C)C=NO	False

Query :: For CCCCC(CC)COP(=O)(Oc1ccccc1)Oc1ccccc1 (configuration not stated) , what call appears in the results of this test?
Result :: False

Query :: Input O=S1(=O)OCC2C(CO1)C1(Cl)C(Cl)=C(Cl)C2(Cl)C1(Cl)Cl (configuration not stated)
Result :: False

Query :: Subsequent entry: c1nc[nH]n1
Result :: False

Query :: Param item: CCNc1nc(Cl)nc(NC(C)(C)C)n1
Result :: False

Query :: Same read-out for O=[N+]([O-])c1ccccc1 ?
Result :: False

Query :: Same for O=S(=O)(c1ccc(O)cc1)c1ccc(O)cc1
Result :: True

====

assay-notes: BSK_4H_SRB: Viability Assessment in the BioMAP Diversity Plus: 4H Assay (AID 2283027);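 further: cells exposed to compound for 24 h before staining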
test-context: primary human endothelial cells (HUVEC)
Calls of active or inactive are those of the source. The calls were made as follows: active = hit-call score of the fitted dose curve at least 0.9, where 1 is the maximum; inactive = score below 0.9.
Result category, one only: active, inactive

Here's what some known entries look like.
CN(C)C(=O)Cl	inactive
CCCCC(CC)COC(=O)c1c(Br)c(Br)c(Br)c(Br)c1C(=O)OCC(CC)CCCC (stereo not drawn)	inactive

We next turn to a different compound, shown below.
Query :: Just curious, what result did Cc1ccc(O)cc1C get here?
Result :: inactive

====

assay-notes: ATG_NRF2_ARE_CIS: Attagene CIS-FACTORIAL HepG2 Assay for human Nuclear Factor Erythroid 2 Related Factor 2 (NFR2) response to Antioxidant Response Elements (ARE) (AID 2282992)
test-context: HepG2 Attagene ARE/NRF2 reporter, transcription factor activity; actives raise or lower the signal
The source made the active and inactive calls. The calls were made as follows: active = hit-call score of the fitted dose curve at least 0.9, where 1 is the maximum; inactive = score below 0.9.
One label from this list, please: active, inactive

Below are worked cases with known answers.
NNC(N)=S	inactive
CC(C)Nc1ccc(Nc2ccccc2)cc1	active
CCOP(=S)(NC(C)C)Oc1ccccc1C(=O)OC(C)C (stereo unspecified)	inactive

Query :: Could you please tell me the result logged for N#C/C=C/c1ccccc1 in this assay?
Result :: inactive

Query :: Continue with C=CC(=O)OCC(CC)(COC(=O)C=C)COC(=O)C=C
Result :: active

Query :: Would you kindly repeat that for CCOP(=S)(Oc1ccc([N+](=O)[O-])cc1)c1ccccc1 (stereo unspecified) ?
Result :: active

Query :: How about this molecule: CSC(C)(C)C=NO
Result :: inactive

Query :: Likewise for Oc1ccc(I)cc1 ?
Result :: active

====

Read-out: Transforming growth factor beta 1 (TGFb1), TGFB1 (gene 7040)
assay-notes: BSK_KF3CT_TGFb1: BioMAP Diversity Plus: KF3CT Assay for Transforming growth factor beta 1 (TGFb1) Biomarker Activity (AID 2283072)
test-context: primary human keratinocytes with fibroblasts; actives raise or lower the signal
Activity calls are given as the source filed them. How the source made its calls: active means hit-call score of the fitted dose curve at least 0.9, where 1 is the maximum; inactive means score below 0.9.
A correct response names exactly one class from t = active, f = inactive

Some solved cases for reference:
CCCCC(CC)COC(=O)c1c(Br)c(Br)c(Br)c(Br)c1C(=O)OCC(CC)CCCC (configuration not stated)	f
C=CC(=O)OCC(CC)(COC(=O)C=C)COC(=O)C=C	t

As a next step, examine the compound that follows.
Query :: Could you check what this test reported for CCN(CC)c1ccccc1 ?
Result :: f

====

Read-out: Monocyte Chemoattractant Protein-1 (MCP1), CCL2 (gene 6347)
assay-notes: BSK_LPS_MCP1: BioMAP Diversity Plus: LPS Assay for Monocyte Chemoattractant Protein-1 (MCP1) Biomarker Activity (AID 2283081);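 on AC50: co-culture stimulated with LPS; secreted MCP-1 protein quantified by ELISA in culture supernatant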
test-context: primary human HUVEC with PBMC; actives raise or lower the signal
The source made the active and inactive calls. How the source made its calls: active means hit-call score of the fitted dose curve at least 0.9, where 1 is the maximum; inactive means score below 0.9.
readout-label: AC50

Past entries and their recorded results:
O=C(O)C(Cl)Cl	inactive
N#Cc1cc([N+](=O)[O-])ccc1N	inactive
O=C(O)C(F)(F)C(F)(F)C(=O)O	inactive
c1ccc(OP(Oc2ccccc2)Oc2ccccc2)cc1	inactive
ClC(Cl)(Cl)c1ccccc1	inactive
c1ccc2c(c1)sc1ccccc12	inactive
CCCN(CCC)c1c([N+](=O)[O-])cc(C(C)C)cc1[N+](=O)[O-]	31.3 µM (active)
Nc1ccc(Cl)cc1	inactive
CC(C)Nc1ccc(Nc2ccccc2)cc1	10.1 µM (active)
ClC(Cl)=C(c1ccc(Cl)cc1)c1ccccc1Cl	29.6 µM (active)

Query :: Please report the recorded AC50 for CCOP(=S)(OCC)SCn1nnc2ccccc2c1=O .
Result :: inactive

Query :: Entry to check: CCCCc1ccccc1
Result :: inactive

Query :: Another compound to check: N#Cc1c(-c2ccc(Cl)cc2)[nH]c(C(F)(F)F)c1Br
Result :: inactive

====

study-target: human Peripheral-type Benzodiazepine Receptor (PBR), TSPO (gene 706) (UniProt P30536)
Sequence (P30536 whole entry, looked up): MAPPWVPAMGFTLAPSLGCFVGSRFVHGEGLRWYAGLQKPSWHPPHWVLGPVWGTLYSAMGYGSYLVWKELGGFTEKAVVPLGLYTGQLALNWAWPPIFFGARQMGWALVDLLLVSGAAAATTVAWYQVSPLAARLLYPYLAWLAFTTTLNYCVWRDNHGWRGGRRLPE
assay-notes: NVS_MP_hPBR: NovaScreen (NVS) Membrane Protein Assay for human Peripheral-type Benzodiazepine Receptor (PBR) (AID 2283331);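 further: hits reduce radioligand binding relative to DMSO baseline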
Results filed as inconclusive are left out. The source made the active and inactive calls. The calls were made as follows: active = hit-call score of the fitted dose curve at least 0.9, where 1 is the maximum; inconclusive = response in the unintended direction; inactive = score below 0.9.
API: response.call in active, inactive

CCOP(=S)(Oc1ccc([N+](=O)[O-])cc1)c1ccccc1 (stereo not given)	inactive

Query :: Dear colleague, could you share the recorded outcome for Cc1ccc2c(c1N)C(=O)c1ccccc1C2=O when you have a moment?
Result :: active

Query :: Quick one: O=P(Oc1ccccc1)(Oc1ccccc1)Oc1ccccc1
Result :: active

Query :: Param item: Oc1ccc(I)cc1
Result :: inactive

Query :: Field entry: c1ccc(OP(Oc2ccccc2)Oc2ccccc2)cc1
Result :: active

====

study-target: Retinoic acid receptor RXR-alpha (Homo sapiens) (UniProt P19793)
Sequence (P19793 whole entry, looked up): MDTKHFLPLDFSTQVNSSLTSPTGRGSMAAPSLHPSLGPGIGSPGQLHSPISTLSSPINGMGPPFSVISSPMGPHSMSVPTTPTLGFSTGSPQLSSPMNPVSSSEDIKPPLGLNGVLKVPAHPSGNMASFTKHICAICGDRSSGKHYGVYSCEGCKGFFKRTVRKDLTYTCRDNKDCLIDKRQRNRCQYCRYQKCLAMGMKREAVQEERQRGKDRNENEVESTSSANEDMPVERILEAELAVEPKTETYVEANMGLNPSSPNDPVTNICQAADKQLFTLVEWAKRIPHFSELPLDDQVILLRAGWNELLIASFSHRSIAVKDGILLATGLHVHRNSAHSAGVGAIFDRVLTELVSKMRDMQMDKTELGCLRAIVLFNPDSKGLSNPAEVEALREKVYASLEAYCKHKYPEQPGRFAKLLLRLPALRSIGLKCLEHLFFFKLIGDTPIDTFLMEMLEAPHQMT
assay-notes: OT_NURR1_NURR1RXRa_1440: Odyssey Thera (OT) 24-hour HEK293T Protein Complementation Assay for Nurr1/retinoid X receptor (RXR) (AID 2283386)
Records with an inconclusive call do not appear. Active and inactive are the calls of the source. How the source made its calls: active means hit-call score of the fitted dose curve at least 0.9, where 1 is the maximum; inconclusive means response in the unintended direction; inactive means score below 0.9.
readout-label: AC50

O=P(Oc1ccccc1)(Oc1ccccc1)Oc1ccccc1	inactive
CCC1(c2ccccc2)C(=O)N=C(O)NC1=O (stereo not drawn)	inactive
CCC(C)(C)c1ccc(O)cc1	66.4 µM (active)

====

assay-notes: APR_HepG2_MicrotubuleCSK_72hr: Apredica 72-hour HepG2 Assay for Microtubule CSK Stabilty (AID 2282919)
test-context: HepG2 microtubule cytoskeleton, high-content imaging, actives raise or lower the signal
Calls of active or inactive are those of the source. How the source made its calls: active means hit-call score of the fitted dose curve at least 0.9, where 1 is the maximum; inactive means score below 0.9.
readout-label: outcome

CN(C)C(=O)Cl	inactive
CCCCc1ccccc1	inactive
CC(C)(C)OOC(C)(C)C	inactive
